Cited source for all entries: PubChem BioAssay (NCI)

- System: BT-549 breast
- procedureSummary: NCI tumour cell line growth inhibition, 48 h
Examples of molecules with documented TGI follow.

{"columns": ["molecule", "TGI"],
 "data": [
  ["CCCN1CCN(c2ccc3nc(-c4ccc5nc(-c6cc(OC)ccc6OC)[nH]c5c4)[nH]c3c2)CC1", "36.1 µM"],
  ["Cn1nc(-c2ccccc2)nc1[N+](=O)[O-]", "> 10 µM"],
  ["COc1ccc2c(c1)OC1=C(C(=O)OC1)C2c1cc(OC)c(OC)c(OC)c1 (stereo not given)", "> 100 µM"],
  ["CC1=NN(C(=O)c2ccccc2O)C(=O)/C1=C/c1ccccc1O", "50 µM"],
  ["Cc1ccc(-c2nc(N)nc3c2nnn3Cc2cccc(CO[C@H]3CCOC3)n2)o1", "> 100 µM"],
  ["Cn1c(NS(=O)(=O)c2ccccc2)nc2ccccc21", "> 100 µM"],
  ["c1ccc(Nc2nnc(Cn3ccc4ccccc43)s2)cc1", "> 100 µM"],
  ["CC(=O)OC1COC(n2c(-c3ccc(Cl)cc3)cc(-c3ccccc3)c(C#N)c2=S)C(OC(C)=O)C1OC(C)=O (stereo not given)", "> 81.8 µM"],
  ["Cc1cc(N2CCCC2)nc(NC2CCCC(Nc3ccnc4cc(Cl)ccc34)C2)n1 (stereo not given)", "3.35 µM"],
  ["Nc1cn(Cc2ccccc2)c2nc(/C=C3/C=CC=CC3=O)c(O)n12", "> 100 µM"]
]}

====

Below, each entry is listed alongside its reported GI50.
- System: HL-60(TB) leukemia
- procedureSummary: NCI tumour cell line growth inhibition, 48 h
endpointName: GI50

{"columns": ["compound", "assayResult"],
 "data": [
  ["NC1CCCCC1N.O=S(=O)([O-])CCCN1CCOCC1.O=S(=O)([O-])CCCN1CCOCC1.[Pt+4]", "4.81 µM"],
  ["Cc1cc(-c2nnc(N)nc2-c2ccc(F)cc2)cc(Cl)n1", "33.6 µM"],
  ["O=C([CH-]C(=O)c1ccccc1)c1ccccc1.O=C([CH-]C(=O)c1ccccc1)c1ccccc1.O=C([CH-]C(=O)c1ccccc1)c1ccccc1.[OH3+].[Y+3]", "2.4 µM"],
  ["O=S(=O)(c1ccc(N=C2NN=C(c3c[nH]c4ccccc34)CS2)cc1)N1CCOCC1", "2.25 µM"],
  ["O=C([O][Hg][CH2]C1COCC([CH2][Hg][O]C(=O)c2ccccc2)O1)c1ccccc1 (centres undefined)", "3.84 µM"],
  ["COc1ccc2c(CN3CCC[C@H]3C(=O)O)cc3cc4c(cc3c2c1)OCO4", "22.9 µM"],
  ["O=C(CC12CC3CC(CC(C3)C1)C2)NCCOCCOCCOCCNC(=O)c1cc2c(o1)C(=O)c1ccccc1C2=O", "1.4 µM"],
  ["CCCN1CCN(c2ccc3nc(-c4ccc5nc(-c6cc(OC)ccc6OC)[nH]c5c4)[nH]c3c2)CC1", "3.12 µM"],
  ["O=CN1N=C(c2ccc(Cl)cc2)CC1c1cccc(Nc2ccnc3cc(Cl)ccc23)c1 (centres undefined)", "1.27 µM"]
]}

====

Listing of recorded TGI by entry.
- Test system: SR leukemia
- procedureSummary: NCI tumour cell line growth inhibition, 48 h
endpointName: TGI

{"columns": ["compound", "assayResult"],
 "data": [
  ["O=c1[nH]ccc2nc(N3CCC(O)CC3)nc(Nc3cccc(C(F)(F)F)c3)c12", "26.9 µM"],
  ["O=C(C[n+]1ccccc1)N=N/C(C(=O)Nc1c(Cl)c(O)c2ccccc2c1O)=C1/C(=O)Oc2cc(O)ccc2C1=O", "53.6 µM"],
  ["COc1cc2c(Oc3ccc4[nH]c(C)cc4c3F)ccnc2cc1OCC1(N)CC1", "4.31 µM"],
  ["[N-]=[NH+]CC(=O)OC(COCc1ccccc1)COCc1ccccc1", "> 100 µM"],
  ["COc1ccc(-c2nc3ncccn3c2/C=C/C(=O)c2cc(OC)c(OC)c(OC)c2)cc1", "> 100 µM"],
  ["CN1CCCCCC(=N\\O)/C(=N/O)CCCCC1", "> 100 µM"],
  ["O=c1[nH]nc(Cc2ccccc2)n1/N=C/c1ccccc1Cl", "> 100 µM"],
  ["CN(C)C(=O)Nc1cc2c3c(c1)CCCN3CCC2", "> 10 µM"],
  ["COc1ccc(CNc2c3ccccc3nc3ccc(OC)cc23)cc1", "5.81 µM"],
  ["CC(=O)Nc1c(C)ccc2c1C(=O)c1ccccc1C2=O", "> 100 µM"],
  ["O=C(O)c1ccc2c(c1)CC1(C2)Cc2ccccc2C1=O (configuration not stated)", "> 100 µM"],
  ["COc1ccc(C(=O)OC2C=COC(C)C2OC(=O)c2ccc(OC)cc2)cc1 (configuration not stated)", "61.9 µM"],
  ["O=C(Nc1cc[c]([Sb](=[O])([OH])[OH])cc1)c1ccccc1", "> 100 µM"],
  ["CCCN1CCN(c2ccc3nc(-c4ccc5nc(-c6cc(OC)ccc6OC)[nH]c5c4)[nH]c3c2)CC1", "5.54 µM"],
  ["NC1=NN(c2ccccc2)C2(O)c3ccncc3C3=NN(c4ccccc4)C(=O)C132 (configuration not stated)", "> 100 µM"],
  ["Cc1cccc2[s+]snc12", "77.8 µM"],
  ["COc1cc(C(c2cc3c(cc2O)OCO3)N2CCCCC2)cc(OC)c1OC (configuration not stated)", "> 23.5 µM"],
  ["CCN(CC)C(=S)SNCc1ccc(S(N)(=O)=O)cc1", "> 64.6 µM"],
  ["NC(CCP(=O)(O)CCC1C=CC=CC1)C(=O)O (configuration not stated)", "> 100 µM"],
  ["OC(C/C(=N\\N1CCCCC1)c1cccs1)(C(F)(F)F)C(F)(F)F", "> 10 µM"],
  ["CC1=CC(=O)C(=O)C2=C1OC1(C2)C(C)CCC2C3(C)CCC(O)C(C)(C)C3CCC21C (configuration not stated)", "> 100 µM"],
  ["O=C(c1cccs1)N(C(=S)N1CCN(c2ccccn2)CC1)C1CCCCC1", "> 100 µM"]
]}

====

- Tested on: SF-268 CNS
- procedureSummary: NCI tumour cell line growth inhibition, 48 h

{"columns": ["molecule", "TGI"],
 "data": [
  ["C=CCN1C=CC(=O)[C@H](O[Si](C)(C)C(C)(C)C)[C@@H]1/C=C/c1ccccc1", "30.9 µM"],
  ["N#Cc1c(Cl)/c(=C/O)c(=O)n2c1nc1ccccc12", "> 100 µM"],
  ["COC(=O)c1ccc(N=NN(C)COc2ccc([N+](=O)[O-])cc2)cc1", "> 100 µM"],
  ["COC(=O)C(=O)C(C#N)c1ccc(CC#N)cc1 (stereo unspecified)", "> 100 µM"],
  ["CCOC(=O)NC(=O)c1cn(CCCOC(=O)CCCCCCCCCCC(=O)OCCCn2cc(C(=O)NC(=O)OCC)c(=O)n(C)c2=O)c(=O)n(C)c1=O", "> 100 µM"],
  ["Cc1cccc(Cl)c1NC(=O)/C=C/c1ccccc1", "> 100 µM"],
  ["O=C(Nc1ccc(F)cc1F)c1cc(Br)ccc1O", "38.7 µM"],
  ["CC/C(=C(/CC)c1ccc(O)cc1)c1ccc([O-])cc1.CC/C(=C(/CC)c1ccc(O)cc1)c1ccc([O-])cc1.O=C([CH-]C(=O)c1ccccc1)c1ccccc1.O=C([CH-]C(=O)c1ccccc1)c1ccccc1.[Ti+4]", "73.2 µM"],
  ["O=c1oc2ccccc2c(O)c1C(c1ccc(/C=C/c2ccccc2)cc1)c1c(O)c2ccccc2oc1=O", "64.9 µM"],
  ["O=[N+]([O-])c1ccc(Nc2nc3ccccc3s2)cc1", "91.7 µM"],
  ["NC(CCP(=O)(O)CCC1C=CC=CC1)C(=O)O (stereo unspecified)", "> 100 µM"],
  ["O=C(O)c1ccccc1C(=O)Nn1cnnc1", "> 100 µM"],
  ["COC1CC(OC2CCC3(C)C(CCC45CCC(C6=CC(=O)OC6)C(C)(CCC43)C5=O)C2)OC(C)C1O (stereo unspecified)", "44 µM"],
  ["O=C([O][Hg][CH2]C1COCC([CH2][Hg][O]C(=O)c2ccccc2)O1)c1ccccc1 (stereo unspecified)", "30.7 µM"],
  ["CN(C)CC/C(=N\\Nc1ccccc1)c1ccccc1", "> 100 µM"],
  ["C=C(C)CN(CC#N)CC(=C)C", "> 100 µM"],
  ["COc1cc(NCc2ccc3nc(OC)c(OC)nc3c2)cc(OC)c1OC", "> 100 µM"],
  ["CCN(CC)C(=S)SNCc1ccc(S(N)(=O)=O)cc1", "26.7 µM"],
  ["CC(=O)NC1C(O)C(O)C(CO)OC1n1ncc(=O)[nH]c1=O (stereo unspecified)", "> 100 µM"],
  ["CN(C(=O)Cc1ccc(Cl)c(Cl)c1)[C@@H]1CCCC[C@H]1[N+]1(C)CC=CC1", "> 100 µM"],
  ["CC/C=C/C(=O)CC(O)(C(F)(F)F)C(F)(F)F", "> 100 µM"]
]}
